Hey, just so you know, these numbers are from ChEMBL document CHEMBL3612053.

Target: Bile acid receptor (Homo sapiens, UniProt Q96RI1)
Sequence (Q96RI1 whole entry, the tested form may be a part): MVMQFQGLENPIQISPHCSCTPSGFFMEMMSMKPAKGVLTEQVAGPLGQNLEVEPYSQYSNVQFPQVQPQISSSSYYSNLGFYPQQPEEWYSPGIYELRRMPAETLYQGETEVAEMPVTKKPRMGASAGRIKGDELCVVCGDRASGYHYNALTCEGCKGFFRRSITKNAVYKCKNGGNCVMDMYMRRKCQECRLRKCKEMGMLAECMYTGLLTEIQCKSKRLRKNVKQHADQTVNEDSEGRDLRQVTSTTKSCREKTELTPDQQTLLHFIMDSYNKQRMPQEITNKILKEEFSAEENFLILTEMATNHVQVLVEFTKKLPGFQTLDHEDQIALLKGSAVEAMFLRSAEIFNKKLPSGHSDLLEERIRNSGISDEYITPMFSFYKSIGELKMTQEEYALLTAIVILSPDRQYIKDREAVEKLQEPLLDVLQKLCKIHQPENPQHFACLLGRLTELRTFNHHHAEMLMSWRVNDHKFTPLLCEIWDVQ
Assay: Antagonist activity at GST-tagged FXR LBD (unknown origin) assessed as inhibition of CDCA-induced Bio-SRC-1 recruitment after 30 mins by HTRF assay
measurement_kind: IC50 (µM)

>  <smiles_record>
CC(C)(C)c1cc(NC(=O)c2c(Cl)cc(NC3CCCC3)cc2Cl)ccc1O

>  <limit_sign>
=

>  <observed_measurement>
5

$$$$
>  <smiles_record>
CC(C)(C)c1cc(NC(=O)c2c(Cl)cc(NCc3ccncc3)cc2Cl)ccc1O

>  <limit_sign>
=

>  <observed_measurement>
9.8

$$$$
>  <smiles_record>
CCc1cc(NC(=O)c2ccc(Cl)cc2Cl)ccc1O

>  <limit_sign>
>

>  <observed_measurement>
100

$$$$
>  <smiles_record>
CC(C)(C)c1cc(NC(=O)c2c(Cl)cc(N3CCCCC3)cc2Cl)ccc1O

>  <limit_sign>
>

>  <observed_measurement>
100

$$$$
>  <smiles_record>
CC(C)(C)c1cc(NC(=O)c2c(Cl)cc(NC3CCCCC3)cc2Cl)ccc1O

>  <limit_sign>
=

>  <observed_measurement>
2.5

$$$$
>  <smiles_record>
CC(C)(C)c1cc(OC(=O)/C=C/c2ccccc2)ccc1O

>  <limit_sign>
>

>  <observed_measurement>
100

$$$$
